flash point overview
ASSAY METRIC: flash point (°C)

> print(dat)
                                    compound  quantity.unit  result.value
 1   O=[N+]([O-])c1ccc(O)cc1 [4-nitrophenol]             °C        192.00
 2    O=C(O)C(Br)Br [2,2-dibromoacetic acid]             °C        113.00
 3  CC1OC(C)OC(C)O1 (centres undefined) [2,4,6-trimethyl-1,3,5-trioxane]             °C         36.00
 4  C=CCc1ccc(OC)c(OC)c1 [1,2-dimethoxy-4-prop-2-enylbenzene]             °C         99.00
 5  COC(=O)c1ccccc1O [methyl 2-hydroxybenzoate]             °C         96.00
 6                     C1COCCN1 [morpholine]             °C         38.00
 7                    CCCBr [1-bromopropane]             °C         26.00
 8                               C [methane]             °C       -188.00
 9             CCCCCCCC(=O)O [octanoic acid]             °C        110.00
10  Cc1ccc(C(C)(C)O)cc1 [2-(4-methylphenyl)propan-2-ol]             °C         96.00
11  CC(C)=CCC/C(C)=C/CO [(2E)-3,7-dimethylocta-2,6-dien-1-ol]             °C        108.00
12              OC=CCCO [but-1-ene-1,4-diol]             °C        128.00
13  CC1(C)[C@@H]2CC[C@]1(C)[C@H](O)C2 [(1S,2R,4R)-1,7,7-trimethylbicyclo[2.2.1]heptan-2-ol]             °C         66.00
14  CCCCOC(=O)c1ccccc1C(=O)OCCCC [dibutyl benzene-1,2-dicarboxylate]             °C        157.00
